# protocol-description: blocks a specific stage of Vaccinia orthopoxvirus infection, primary screen, cell-based, single point (AID 1053133)
# condition-notes: Vaccinia-infected cells, mCherry/Venus stage reporter fluorescence, hits give low values, concentration not given here
Hit rate of the full screen: of about 89,000 compounds, about 10 (0.01%) were called active. Roughly 10% stayed inconclusive and do not appear here. Not all results are given here.
Binarize activity change (mCherry) at 10%; below is fulfilled, at or above is not fulfilled.

Does the reported activity change (mCherry) of the following molecule sit strictly below 10%? CN1c2ccc(C#Cc3cccnc3)cc2[C@H]2[C@H](CCN2S(=O)(=O)c2ccccc2)[C@@H]1CO
fulfilled

Does the reported activity change (mCherry) of the following molecule sit strictly below 10%? COCC(=O)Nc1ccc2c(c1)C(=O)N(C)[C@@H]1CC[C@H](CC(=O)NCC3CC3)O[C@@H]1CO2
not fulfilled

Does the reported activity change (mCherry) of the following molecule sit strictly below 10%? O=C(C[C@@H]1CC[C@@H]2[C@H](COC[C@@H](O)CN2S(=O)(=O)c2cccc(Cl)c2)O1)N1CCOCC1
not fulfilled

Does the reported activity change (mCherry) of the following molecule sit strictly below 10%? CCNC(=O)[C@H]1[C@H](CO)[C@H]2Cn3c(cccc3=O)[C@@H]1N2Cc1cc(F)ccc1F
not fulfilled

* * *

# protocol-description: blocks a specific stage of Vaccinia orthopoxvirus infection, primary screen, cell-based, single point (AID 1053133)
# condition-notes: Vaccinia-infected cells, mCherry/Venus stage reporter fluorescence, hits give low values, concentration not given here
In all, about 89,000 compounds went through this assay and about 10 (0.01%) were called active. Inconclusive results (about 10%) are left out. Not all results are given here.
test-readout: activity change (mCherry) (%)
Give bare numbers, in %.

Which activity change (mCherry) is reported for this compound? COc1ccc(S(=O)(=O)N[C@@H]2CC[C@@H](CC(=O)NCCc3ccccc3)O[C@@H]2CO)cc1
3.47

Please go through the list and note activity change (mCherry) for each compound.
1. O=C(C[C@@H]1CC[C@H](NC(=O)Nc2ccc3c(c2)OCO3)[C@H](CO)O1)NCc1ccccc1
2. CN(C)CC(=O)N1[C@H](CO)[C@@H](c2ccc(-c3cccc(C(=O)N(C)C)c3)cc2)[C@@H]1C#N
3. CN(C)C(=O)c1ccc(-c2ccc([C@H]3[C@H](CO)N4C(=O)CN(C(=O)C5CCCC5)C[C@@H]34)cc2)cc1

[19.4, 8.67, 4.76]

Please go through the list and note activity change (mCherry) for each compound.
1. N#C[C@@H]1[C@H](c2ccccc2-c2cccc(F)c2)[C@@H](CO)N1C(=O)CN1CCOCC1
2. COCC(=O)Nc1ccc2c(c1)C(=O)N(C)C[C@H](OC)[C@@H](C)CN(CCc1ccccc1)[C@@H](C)CO2
3. O=C(N[C@H]1CC[C@@H](CCn2cc(Cc3ccccc3)nn2)O[C@H]1CO)c1cnccn1
4. CCC(=O)N(C)C[C@@H]1Oc2ncc(/C=C/c3ccccc3)cc2C(=O)N([C@@H](C)CO)C[C@H]1C
5. COc1ccc(-c2ccc3n(c2=O)C[C@@H]2[C@@H](CO)[C@H](C(=O)Nc4ccccc4)[C@H]3N2C)cc1
6. COCC(=O)N1CC2(CN(C(=O)c3cccnc3)C2)c2c([nH]c3cc(OC)ccc23)[C@H]1CO

[12.6, -4.99, 6.03, 12.1, -0.0885, 2.73]

Please go through the list and note activity change (mCherry) for each compound.
1. CCCc1cn(CC[C@@H]2CC[C@@H](NC(=O)CCN3CCCCC3)[C@H](CO)O2)nn1
2. C[C@@H](NC(=O)C[C@H]1CC[C@H](NS(=O)(=O)c2cccc(F)c2)[C@H](CO)O1)c1ccccc1
3. C[C@H](O)C#Cc1cnc2c(c1)C(=O)N([C@@H](C)CO)C[C@@H](C)[C@@H](CN(C)C(=O)Cc1ccccn1)O2

1. 4.68
2. 12.2
3. 17.6

Which activity change (mCherry) is reported for this compound? O=C(C[C@H]1CC[C@H](NC(=O)CCN2CCCCC2)[C@@H](CO)O1)Nc1ccccc1
7.83

* * *

# protocol-description: blocks a specific stage of Vaccinia orthopoxvirus infection, primary screen, cell-based, single point (AID 1053133)
# condition-notes: Vaccinia-infected cells, mCherry/Venus stage reporter fluorescence, hits give low values, concentration not given here
About 10 (0.01%) of roughly 89,000 compounds were called active. Roughly 10% stayed inconclusive and do not appear here. These entries were drawn from the full list.
Exercise: state measured activity change (mCherry) for each of the compounds provided.
Give bare numbers, in %.

Solved entries (count: 5):
Which activity change (mCherry) is reported for this compound? CO[C@H]1CN(C)C(=O)c2ccc(NC(=O)c3ccccc3F)cc2OC[C@H](C)N(C(=O)c2ccccc2F)C[C@H]1C
-1.92

Which activity change (mCherry) is reported for this compound? COc1ccccc1-c1cnc2c(c1)C(=O)N([C@H](C)CO)C[C@H](C)[C@@H](CN(C)C(=O)CC1CC1)O2
5.06

Which activity change (mCherry) is reported for this compound? CO[C@H]1CN(C)C(=O)c2ccc(NC(=O)c3ccno3)cc2OC[C@@H](C)N(S(C)(=O)=O)C[C@H]1C
24.5

Which activity change (mCherry) is reported for this compound? CC(=O)N(C)C[C@@H]1Oc2cc(C#Cc3ccccc3F)ccc2S(=O)(=O)N([C@@H](C)CO)C[C@@H]1C
-31.1

Which activity change (mCherry) is reported for this compound? Cc1cccc(-c2ccc([C@@H]3[C@H]4CN(C(=O)c5ccccc5)CC(=O)N4[C@H]3CO)cc2)c1
-24.1

Please go through the list and note activity change (mCherry) for each compound.
1. CCN1[C@@H]2Cn3c(ccc(C4=CCCCC4)c3=O)[C@H]1[C@@H](C(=O)N1CCCCC1)[C@@H]2CO
2. CC(C)NC(=O)N1[C@H](C(=O)N2CCc3ccccc3C2)[C@@H](CO)[C@@H]2Cn3c(cccc3=O)[C@@H]21
3. O=C(C[C@H]1C=C[C@H](NC(=O)Nc2cc(F)ccc2F)[C@H](CO)O1)Nc1ccccc1
4. O=C(C[C@@H]1CC[C@@H]2[C@H](COC[C@H](O)CN2Cc2ccc(F)cc2)O1)NCc1ccncn1

1. -0.187
2. 13.3
3. -4.16
4. 13.7
